- System: Hek293T
- assayNotes: Primary qHTS to identify gynecologic anti-cancer compounds using libraries of approved drugs and bioactive compounds (AID 1345084); further: on the % scale 0 is the no-effect control and ±100 the full control effect; nearly all actives have a fitted effect of over 55% in size
- testParameters: Gynecologic cancer cell panel viability, ATPlite luminescence, 48 h, control line for the selectivity index; series mostly up to 57.5 µM
Records with an inconclusive call do not appear. The source made the active and inactive calls. The call rests on the fitted dose curve; in most records, active means well fitted cell-killing curve with a large enough effect; inconclusive means small, poorly fitted or top-dose-only effect, or effect the other way; inactive means flat fitted curve, though single readings scatter.
measurementName: activity change, negative = cytotoxicity

molecule	result
CCC1NC(=O)C2C(Cl)C(Cl)CN2C(=O)C(C(C)O)NC(=O)CC(c2ccccc2)NC(=O)C(CO)NC1=O (stereo not drawn)	inactive
COc1cc(C)[nH]c(=O)c1CNC(=O)c1c(C)n([C@H](C)C2CCOCC2)c2ccccc12	inactive
C=C(C)[C@H]1O[C@H]2CC[C@@]3(C)[C@@](O)(CC[C@H]4[C@@H]5OC(C)(C)[C@H]6C[C@@H]7C(=C)Cc8c(Cl)cc9[nH]c(c5c9c8[C@@]76O)[C@@]43C)[C@]23O[C@@H]3[C@H]1O	inactive

====

- assayNotes: Cell Viability - LYMP2-020 (AID 986);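 further: cells exposed to compound for 24 h at 37 °C; nearly all actives have a fitted effect of over 55% in size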; further: potency means the concentration at half of the fitted maximal effect
- testParameters: series mostly up to 92.2 µM
Inconclusive results are not listed. Active and inactive are the calls of the source. The call rests on the fitted dose curve; in most records, active means well fitted cell-killing curve with a large enough effect; inconclusive means small, poorly fitted or top-dose-only effect; inactive means flat fitted curve, though single readings scatter.
measurementName: Potency

As a guide, the following entries are already answered.
molecule	result
O=C(O)C(Cl)(Cl)Cl	inactive
CC(C)(C)c1cc(O)ccc1O	50.1 µM (active)
COc1ccc2c(c1OC)C(=O)OC2C1c2cc3c(cc2CCN1C)OCO3 (stereo unspecified)	inactive
ClC(Cl)(Cl)Cl	inactive

Query string: Given `C[C@]12CCC(=O)C[C@@H]1CC[C@@H]1[C@@H]2CC[C@]2(C)[C@@H](O)CC[C@@H]12` , state its recorded Potency.
Result string: inactive

Query string: And `S=C=S` ?
Result string: inactive

====

- Test system: JEG-3
- assayNotes: Primary qHTS to identify gynecologic anti-cancer compounds using libraries of approved drugs and bioactive compounds (AID 1345084); further: on the % scale 0 is the no-effect control and ±100 the full control effect; nearly all actives have a fitted effect of over 55% in size
- testParameters: Gynecologic cancer cell panel viability, ATPlite luminescence, 48 h; series mostly up to 57.5 µM
Records with an inconclusive call do not appear. Activity calls are given as the source filed them. The call rests on the fitted dose curve; in most records, active means well fitted cell-killing curve with a large enough effect; inconclusive means small, poorly fitted or top-dose-only effect, or effect the other way; inactive means flat fitted curve, though single readings scatter.

molecule	activity change, negative = cytotoxicity
C[C@@]12C[C@@H](c3ccoc3)OC(=O)C1CC[C@]1(C)[C@H]2[C@H]2C=C[C@]1(O)C(=O)O2 (stereo partly drawn)	inactive
CC(=O)O[C@H]1C[C@@H](OC(C)=O)C(C)(C)C2C[C@@H](O)[C@]3(C)C(CC[C@@]4(C)[C@H](C5=CC(=O)OC5O)C[C@H]5O[C@]543)[C@]21C (stereo partly drawn)	inactive
C/C=C(\C)C(=O)OC1CC2C(CC=C3CC(OC4CC(OC)C(OC5CC(OC)C(OC6OC(C)C(OC7OC(CO)C(O)C(O)C7O)C(OC)C6O)C(C)O5)C(C)O4)CCC32C)C2(O)CCC(C(C)=O)C12C (stereo not drawn)	1.45% [at 11.6 µM] (inactive)

====

- tgt: Peroxisome proliferator-activated receptor gamma (Homo sapiens) (UniProt P37231)
- Sequence (P37231 whole entry, looked up): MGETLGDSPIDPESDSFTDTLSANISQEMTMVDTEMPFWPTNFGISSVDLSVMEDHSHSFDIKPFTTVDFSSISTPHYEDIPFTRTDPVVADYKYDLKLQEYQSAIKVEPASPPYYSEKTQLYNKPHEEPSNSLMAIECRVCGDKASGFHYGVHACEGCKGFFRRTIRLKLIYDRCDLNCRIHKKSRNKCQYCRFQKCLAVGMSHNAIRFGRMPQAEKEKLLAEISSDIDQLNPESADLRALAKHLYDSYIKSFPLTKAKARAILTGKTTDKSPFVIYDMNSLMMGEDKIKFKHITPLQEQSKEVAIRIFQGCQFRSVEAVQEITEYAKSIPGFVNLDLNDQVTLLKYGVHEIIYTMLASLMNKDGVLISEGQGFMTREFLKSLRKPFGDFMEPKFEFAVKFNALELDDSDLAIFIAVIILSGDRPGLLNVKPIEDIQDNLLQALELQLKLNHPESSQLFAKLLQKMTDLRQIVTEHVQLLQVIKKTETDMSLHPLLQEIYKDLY
- assayNotes: qHTS assay for small molecule antagonists of peroxisome proliferator-activated receptor gamma signaling (AID 588537)
- testParameters: HEK293 PPARg-UAS-bla, beta-lactamase ratio, antagonist mode; series mostly up to 76.8 µM
Results filed as inconclusive are left out. Activity calls are given as the source filed them. The call rests on the fitted dose curve; in most records, active means well fitted inhibition curve with a large enough effect in the signal ratio, with a control signal flat (not every such curve was filed as active); inconclusive means small, poorly fitted or top-dose-only effect, or effect the other way, or a change in a side signal; inactive means flat fitted curve, though single readings scatter; the % refers to the signal ratio.
Form entry, call: pick from active, inactive

Query string: Recorded test call requested for `CCOC(=O)c1ccccc1C(=O)OCC`
Result string: inactive

Query string: And `O=C1C[C@@H]2OCC=C3CN4CC[C@]56c7ccccc7N1[C@H]5[C@H]2[C@H]3C[C@H]46` ?
Result string: inactive

Query string: And `N#CN` ?
Result string: inactive

Query string: And `O=C(O)C(Cl)(Cl)Cl` ?
Result string: inactive

Query string: And ClCC1CO1 (stereo not given) ?
Result string: inactive

Query string: And ClC1C(Cl)C(Cl)C(Cl)C(Cl)C1Cl (stereo not given) ?
Result string: inactive

Query string: And O=C(NCNC(=O)NC1C(=O)NC(=O)N1CO)NC1C(=O)NC(=O)N1CO (stereo not given) ?
Result string: inactive

Query string: And `CC(C)CCON=O` ?
Result string: inactive

Query string: And `O=C/C=C/c1ccccc1` ?
Result string: inactive

Query string: And `O=C1CCO1` ?
Result string: inactive

Query string: And `ClC(Cl)(Cl)Cl` ?
Result string: inactive

Query string: And `CCCCCCCCOC(=O)c1ccccc1C(=O)OCCCCCCCC` ?
Result string: inactive

Query string: And COCC(C)N(C(=O)CCl)c1c(C)csc1C (stereo not given) ?
Result string: active

Query string: And `C[C@H]1CCC[C@H](O)CCCCCc2cc(O)cc(O)c2C(=O)O1` ?
Result string: inactive

Query string: And C[C@H]1CC[C@@H]2[C@@H](C)[C@H]3[C@H](C[C@H]4[C@@H]5CC=C6CC(O[C@@H]7O[C@H](CO)[C@H](O)[C@H](O[C@@H]8O[C@H](CO)[C@@H](O)[C@H](O)[C@H]8O)[C@H]7O[C@H]7O[C@@H](C)[C@H](O)[C@@H](O)[C@H]7O)CC[C@]6(C)[C@H]5CC[C@]34C)N2C1 (stereo not given in full) ?
Result string: inactive
